Entry source: patent US20160102058A1

Recorded concentration at 1 h values for a group of compounds are listed next.
Assay: Rat oral pharmacokinetics, plasma and myocardium
Format: in vivo, male Sprague-Dawley rats
Settings: male, Sprague-Dawley, 10 mg/kg oral, myocardium, 1 h, read-out: Conc., myocardium, 1 h
Protocol: Absorption, distribution and metabolic stability were studied using an in vivo pharmacokinetics assay. Drug levels were assessed using LC/MS-MS. Healthy male BALB/c mice (8-12 weeks old) weighing between 25 and 35 g, or Sprague-Dawley rats weighing between 250 and 300 g were procured from In-vivo Bioscience Bangalore, India. Three mice were housed in each cage. […] Temperature and humidity were recorded by auto-controlled data logger system. […]
Parameter: concentration at 1 h (ng/mL)

INSERT INTO results (compound, parameter, result_value) VALUES
  ('C1CCC(C(CC2CCCCN2)C2CCCCC2)CC1 (centres unmarked)', 'concentration at 1 h', 1900),
  ('FC1(F)CCC(C(CC2CCCCN2)C2CCCCC2)CC1 (mixture of isomers)', 'concentration at 1 h', 5910);
